tested on: HepG2 liver cells; test: Triglyceride assay in HepG2 cells; assay type: cell-based; details: 24 h, 25 pM
ENDPOINT_LABEL: triglyceride mass

query: // triglyceride mass lookup, key: `C=CCn1c(N2[C@@H]3CC(C)(C)C[C@@]2(C)C3)nc2cccc(F)c2c1=O`
result: slight increase

query: // triglyceride mass lookup, key: `CCCn1c(N2[C@@H]3CC(C)(C)C[C@@]2(C)C3)nc2cccc(F)c2c1=O`
result: slight increase
